tested on: AGS; experiment: Upregulation of phosphorylated p53 level in human AGS cells at 1 and 5 uM after 24 hrs by Western blot analysis; type: functional, cell-based
The source made the active and inactive calls. The calls are words filed in the database; no cut-off is given here.
Would you mind answering with one of these outcomes? active, inactive

Past entries and their recorded results:
compound-structure-string: CN(C)CCNc1c2c(c(NCCN(C)C)c3occc13)C(=O)c1ccccc1C2=O
cat: active

compound-structure-string: CNCCNc1c2c(c(NCCNC)c3occc13)C(=O)c1ccccc1C2=O
cat: active

compound-structure-string: O=C1c2ccccc2C(=O)c2c1c(NCCNCCO)c1ccoc1c2NCCNCCO
cat: active

compound-structure-string: CN1CCN(C(=O)c2cc3c(NCCNC(=N)N)c4c(c(NCCNC(=N)N)c3o2)C(=O)c2ccccc2C4=O)CC1
cat: inactive

Task item: Record request — test call for N=C(N)NCCNc1c2c(c(NCCNC(=N)N)c3occc13)C(=O)c1ccccc1C2=O
Reply: inactive

Task item: Record request — test call for CN1CCN(C(=O)c2cc3c(NCCN)c4c(c(NCCN)c3o2)C(=O)c2ccccc2C4=O)CC1
Reply: active

Task item: Record request — test call for NCCNc1c2c(c(NCCN)c3occc13)C(=O)c1ccccc1C2=O
Reply: active

====

test system: AGS; assay: Upregulation of acetylated p53 level in human AGS cells at 1 and 5 uM after 24 hrs by Western blot analysis; assay type: functional, cell-based
Calls of active or inactive are those of the source. The rule behind the calls is not given here.
reported-metric: Activity

Example entries and their recorded answers appear below.
compound-structure-string: CN(C)CCNc1c2c(c(NCCN(C)C)c3occc13)C(=O)c1ccccc1C2=O
Activity: Active

compound-structure-string: N=C(N)NCCNc1c2c(c(NCCNC(=N)N)c3occc13)C(=O)c1ccccc1C2=O
Activity: inactive

compound-structure-string: CN1CCN(C(=O)c2cc3c(NCCNC(=N)N)c4c(c(NCCNC(=N)N)c3o2)C(=O)c2ccccc2C4=O)CC1
Activity: inactive

compound-structure-string: NCCNc1c2c(c(NCCN)c3occc13)C(=O)c1ccccc1C2=O
Activity: Active

compound-structure-string: O=C1c2ccccc2C(=O)c2c1c(NCCNCCO)c1ccoc1c2NCCNCCO
Activity: Active

Task item: Tell me its Activity given CNCCNc1c2c(c(NCCNC)c3occc13)C(=O)c1ccccc1C2=O as the entry.
Reply: Active

====

system: MRC5; test: Antiproliferative activity against human MRC5 cells after 72 hrs by cell impedance based study; settings: MRC5, 72 h
reported-metric: pIC50
Units for pIC50: none; it is -log10 of a concentration expressed in mol/L.

Task item: Tell me its pIC50 given CNCCNc1c2c(c(NCCNC)c3occc13)C(=O)c1ccccc1C2=O as the entry.
Reply: 6.11

====

target: NAD-dependent protein deacetylase sirtuin-1 (Homo sapiens) (UniProt Q96EB6); test: Inhibition of human recombinant SIRT1 deacetylase activity using Arg-His-Lys-Lys(epsilon-acetyl)-AMC as substrate at 5 uM incubated for 45 mins by fluorescence analysis
Sequence (Q96EB6 whole entry): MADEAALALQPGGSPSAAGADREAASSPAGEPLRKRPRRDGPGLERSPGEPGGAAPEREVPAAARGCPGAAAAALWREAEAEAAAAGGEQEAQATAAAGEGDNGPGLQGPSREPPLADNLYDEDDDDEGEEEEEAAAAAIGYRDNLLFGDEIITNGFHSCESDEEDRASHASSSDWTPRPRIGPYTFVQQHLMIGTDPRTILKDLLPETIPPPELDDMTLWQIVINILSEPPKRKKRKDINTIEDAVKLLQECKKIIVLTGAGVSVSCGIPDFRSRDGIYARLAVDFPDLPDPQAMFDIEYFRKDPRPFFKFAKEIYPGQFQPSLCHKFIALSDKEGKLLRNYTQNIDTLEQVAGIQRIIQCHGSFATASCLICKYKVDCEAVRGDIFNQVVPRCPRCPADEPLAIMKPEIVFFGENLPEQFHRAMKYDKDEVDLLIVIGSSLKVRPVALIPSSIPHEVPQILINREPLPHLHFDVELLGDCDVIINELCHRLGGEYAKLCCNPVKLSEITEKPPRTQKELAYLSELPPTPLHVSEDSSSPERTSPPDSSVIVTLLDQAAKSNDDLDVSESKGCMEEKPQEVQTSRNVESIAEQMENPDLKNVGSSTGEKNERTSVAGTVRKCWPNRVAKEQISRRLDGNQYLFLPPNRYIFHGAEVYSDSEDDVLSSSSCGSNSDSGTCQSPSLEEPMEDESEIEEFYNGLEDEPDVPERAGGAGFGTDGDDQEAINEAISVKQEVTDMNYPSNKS
Activity calls are given as the source filed them. No cut-off for these calls is given here.
Would you mind answering with one of these outcomes? 1 (yes) (active), 0 (no) (inactive)

compound-structure-string: NCCNc1c2c(c(NCCN)c3occc13)C(=O)c1ccccc1C2=O
cat: 1 (yes)
//
compound-structure-string: CNCCNc1c2c(c(NCCNC)c3occc13)C(=O)c1ccccc1C2=O
cat: 1 (yes)
//
compound-structure-string: CN1CCN(C(=O)c2cc3c(NCCN)c4c(c(NCCN)c3o2)C(=O)c2ccccc2C4=O)CC1
cat: 0 (no)

Task item: Record request — test call for N=C(N)NCCNc1c2c(c(NCCNC(=N)N)c3occc13)C(=O)c1ccccc1C2=O
Reply: 0 (no)
